- testedOn: DNA dC->dU-editing enzyme APOBEC-3F (Homo sapiens) (UniProt Q8IUX4)
- Sequence (Q8IUX4 whole entry, looked up): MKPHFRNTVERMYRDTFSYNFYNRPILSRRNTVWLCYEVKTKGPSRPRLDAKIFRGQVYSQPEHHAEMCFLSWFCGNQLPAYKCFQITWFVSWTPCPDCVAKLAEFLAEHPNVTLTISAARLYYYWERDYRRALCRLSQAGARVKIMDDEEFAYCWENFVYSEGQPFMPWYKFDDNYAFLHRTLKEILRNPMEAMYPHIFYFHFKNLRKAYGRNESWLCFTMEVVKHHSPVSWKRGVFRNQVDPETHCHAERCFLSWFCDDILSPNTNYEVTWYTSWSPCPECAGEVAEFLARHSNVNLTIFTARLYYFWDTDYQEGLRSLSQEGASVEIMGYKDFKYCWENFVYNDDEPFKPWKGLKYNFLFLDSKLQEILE
- test: qHTS for inhibitors of Vif-A3F interactions: Cherry picks;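 further: % of control where 0% means no effect; active compounds raise eYFP fluorescence by blocking Vif-driven A3F loss; nearly all actives have a fitted effect of over 70% in size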
- conditionNotes: HeLa A3F-eYFP + Vif, eYFP fluorescence, 24 h
- From the text: The recent discovery and characterization of host restriction factors, which provide a potent defense to invading retroviruses, has provided new targets for antiviral drug development. […] In the presence of an inhibitor, it is expected that Vif will be unable to degrade A3G-eYFP and/or A3F-eYFP, resulting in an increase in yellow fluorescence. […]
Hit rate of the full screen: of about 2,100 compounds, about 590 (28%) were called active. Another 42% or so got no clear call; they are omitted. Some of the results follow.
Catalogue of molecules with associated max response
Unit % implied. Number only.

Worked set:
# molecule, max response / %
measured = [
    ("Fc1ccc(CNc2nc3ccc(Cl)cc3n3nnnc23)cc1", -20.9),
    ("Cc1nn(-c2ccc(F)cc2)c(Cl)c1/C=C1\\C(=O)Nc2ccccc21", -19.4),
    ("CCC(=O)OCc1cnc(C)c2oc(=O)c(C(=O)Nc3ccccc3C(F)(F)F)cc12", -0.08),
]

Prompt: Recall the reported max response of CN(Cc1cnn(Cc2ccccc2)c1)C(=O)c1cccc(S(=O)(=O)N2CCOCC2)c1 when tested on DNA dC->dU-editing enzyme APOBEC-3F (Homo sapiens) (UniProt Q8IUX4).
Completion: -22

Prompt: Recall the reported max response of CCCCOc1ccc(-c2nnn(CC(=O)NCc3ccco3)n2)cc1 when tested on DNA dC->dU-editing enzyme APOBEC-3F (Homo sapiens) (UniProt Q8IUX4).
Completion: -20.9

Prompt: Recall the reported max response of COc1cc(C(=O)Nc2nnc(Cc3ccccc3)s2)cc(OC)c1OC when tested on DNA dC->dU-editing enzyme APOBEC-3F (Homo sapiens) (UniProt Q8IUX4).
Completion: -23.2

Prompt: Recall the reported max response of O=S(=O)([N-]c1nc2ccccc2nc1-[n+]1ccc(-c2ccncc2)cc1)c1ccccc1 when tested on DNA dC->dU-editing enzyme APOBEC-3F (Homo sapiens) (UniProt Q8IUX4).
Completion: -0.136

---

Catalogue of molecules with associated max response
- testedOn: DNA dC->dU-editing enzyme APOBEC-3F (Homo sapiens) (UniProt Q8IUX4)
- test: qHTS for inhibitors of Vif-A3F interactions: Cherry picks;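 further: % of control where 0% means no effect; active compounds raise eYFP fluorescence by blocking Vif-driven A3F loss; nearly all actives have a fitted effect of over 70% in size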
- conditionNotes: HeLa A3F-eYFP + Vif (tagged APOBEC3F with the HIV-1 protein that degrades it), eYFP fluorescence, 24 h
- Text: The recent discovery and characterization of host restriction factors, which provide a potent defense to invading retroviruses, has provided new targets for antiviral drug development. […] In the presence of an inhibitor, it is expected that Vif will be unable to degrade A3G-eYFP and/or A3F-eYFP, resulting in an increase in yellow fluorescence. […]
The campaign covered roughly 2,100 compounds. About 590 (28%) were called active. Not shown: some 42% with an inconclusive outcome. The list shows a part of the results.
Unit % implied. Number only.

Worked set:
# molecule, testedOn, max response (%)
records = [
    ("O=Cc1s/c(=N\\S(=O)(=O)c2ccccc2)n(CCCCl)c1Cl", "DNA dC->dU-editing enzyme APOBEC-3F (Homo sapiens) (UniProt Q8IUX4)", -29.9),
    ("NC(=S)N/N=C\\c1ccc(-c2cccc(Cl)c2Cl)o1", "DNA dC->dU-editing enzyme APOBEC-3F (Homo sapiens) (UniProt Q8IUX4)", -18.7),
    ("COc1ccc(C(=O)NC(=S)NCc2cccnc2)cc1Cl", "DNA dC->dU-editing enzyme APOBEC-3F (Homo sapiens) (UniProt Q8IUX4)", -3.18),
    ("CCOC1=C2CN(S(=O)(=O)c3ccc(C)cc3)[C@H](c3cccc4ccccc34)C[C@H]2C(C#N)(C#N)C(C#N)(C#N)C1", "DNA dC->dU-editing enzyme APOBEC-3F (Homo sapiens) (UniProt Q8IUX4)", -5.21),
    ("Cc1cccc(N=C2NC(=O)/C(=C/c3cccn3C)S2)c1", "DNA dC->dU-editing enzyme APOBEC-3F (Homo sapiens) (UniProt Q8IUX4)", -9.23),
]

Prompt: Recall the reported max response of COc1ccc(-c2nc3c4ccccc4ccn3c2Cc2ccsc2)cc1OC when tested on DNA dC->dU-editing enzyme APOBEC-3F (Homo sapiens) (UniProt Q8IUX4).
Completion: -2.92

Prompt: Recall the reported max response of Clc1ccccc1Cn1c(/C=C/c2ccco2)nc2ccccc21 when tested on DNA dC->dU-editing enzyme APOBEC-3F (Homo sapiens) (UniProt Q8IUX4).
Completion: -8.9

Prompt: Recall the reported max response of Cc1oc(C)c2c(=O)ccc3c(c12)OC(N)=C(C#N)C3c1ccc(F)cc1 (stereo not drawn) when tested on DNA dC->dU-editing enzyme APOBEC-3F (Homo sapiens) (UniProt Q8IUX4).
Completion: 1.74

Prompt: Recall the reported max response of CCC(=O)Nc1nonc1-c1nc2ccccc2n1Cc1ccccc1 when tested on DNA dC->dU-editing enzyme APOBEC-3F (Homo sapiens) (UniProt Q8IUX4).
Completion: -26.4

Prompt: Recall the reported max response of NC(=O)C1CCN(c2nc3ccccc3nc2NS(=O)(=O)c2ccc(Br)cc2)CC1 when tested on DNA dC->dU-editing enzyme APOBEC-3F (Homo sapiens) (UniProt Q8IUX4).
Completion: -0.959

Prompt: Recall the reported max response of C=C(C)CNC(=S)NNC(=O)c1ccco1 when tested on DNA dC->dU-editing enzyme APOBEC-3F (Homo sapiens) (UniProt Q8IUX4).
Completion: 4.89

Prompt: Recall the reported max response of O=c1[nH]c2ccccc2n2c(C(F)(F)F)nnc12 when tested on DNA dC->dU-editing enzyme APOBEC-3F (Homo sapiens) (UniProt Q8IUX4).
Completion: -23.2

Prompt: Recall the reported max response of Cc1ccc(/C=N/NC(=O)c2nc3nc(C)cc(C)n3n2)cc1 when tested on DNA dC->dU-editing enzyme APOBEC-3F (Homo sapiens) (UniProt Q8IUX4).
Completion: 1.02

Prompt: Recall the reported max response of O=C(Nc1ncc(Cc2ccc(SC(F)F)cc2)s1)c1ccccc1 when tested on DNA dC->dU-editing enzyme APOBEC-3F (Homo sapiens) (UniProt Q8IUX4).
Completion: -6.02

Prompt: Recall the reported max response of NC(=O)c1cccc(-c2ccnc3c2CC(C(=O)NCc2ccco2)O3)c1 (stereo not drawn) when tested on DNA dC->dU-editing enzyme APOBEC-3F (Homo sapiens) (UniProt Q8IUX4).
Completion: -22.9

Recorded values, source PubChem BioAssay AID651814.
